# Test system: 72 kDa type IV collagenase (Homo sapiens, UniProt P08253)
# Sequence (P08253 whole entry): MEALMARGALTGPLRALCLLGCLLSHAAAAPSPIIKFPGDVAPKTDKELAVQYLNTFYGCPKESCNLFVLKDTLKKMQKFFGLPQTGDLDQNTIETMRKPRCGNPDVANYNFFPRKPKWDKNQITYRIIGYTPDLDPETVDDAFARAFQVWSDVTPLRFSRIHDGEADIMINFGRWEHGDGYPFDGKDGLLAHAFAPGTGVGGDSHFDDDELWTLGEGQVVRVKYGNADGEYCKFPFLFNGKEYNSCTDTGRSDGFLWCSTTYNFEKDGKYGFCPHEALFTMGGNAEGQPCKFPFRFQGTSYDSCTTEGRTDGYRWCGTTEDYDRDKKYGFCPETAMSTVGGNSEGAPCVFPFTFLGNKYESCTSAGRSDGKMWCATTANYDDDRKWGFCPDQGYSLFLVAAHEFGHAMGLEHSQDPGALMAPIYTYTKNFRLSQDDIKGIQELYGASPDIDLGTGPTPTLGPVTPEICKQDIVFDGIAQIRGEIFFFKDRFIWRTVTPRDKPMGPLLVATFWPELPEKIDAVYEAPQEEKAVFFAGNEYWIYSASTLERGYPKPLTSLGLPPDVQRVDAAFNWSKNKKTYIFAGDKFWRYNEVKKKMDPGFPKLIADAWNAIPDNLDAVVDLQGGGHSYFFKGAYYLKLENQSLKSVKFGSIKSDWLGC
# Protocol text: Inhibition of human recombinant MMP2 after 1 hr

Molecule	Test system	Unit descriptor	IC50
O=P(O)(O)C(Cl)(Cl)P(=O)(O)O [CLODRONIC ACID]	72 kDa type IV collagenase (Homo sapiens, UniProt P08253)	µM	145

====

# Test system: UniProt P39900
# Sequence (P39900 whole entry): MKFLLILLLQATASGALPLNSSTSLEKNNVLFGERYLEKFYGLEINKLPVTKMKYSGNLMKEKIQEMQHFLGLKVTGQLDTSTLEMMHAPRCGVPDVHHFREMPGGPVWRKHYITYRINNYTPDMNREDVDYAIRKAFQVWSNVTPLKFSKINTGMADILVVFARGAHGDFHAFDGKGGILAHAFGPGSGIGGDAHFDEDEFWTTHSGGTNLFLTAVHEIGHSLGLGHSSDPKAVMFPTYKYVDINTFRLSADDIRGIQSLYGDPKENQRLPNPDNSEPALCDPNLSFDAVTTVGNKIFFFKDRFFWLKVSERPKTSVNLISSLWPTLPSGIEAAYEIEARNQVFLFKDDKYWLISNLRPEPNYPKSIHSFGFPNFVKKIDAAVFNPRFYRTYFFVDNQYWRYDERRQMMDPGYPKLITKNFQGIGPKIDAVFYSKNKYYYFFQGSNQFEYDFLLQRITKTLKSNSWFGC
# Protocol text: Inhibition of human recombinant MMP12 after 1 hr

Compound	IC50 (µM)
O=P(O)(O)C(Cl)(Cl)P(=O)(O)O [CLODRONIC ACID]	121

====

# Test system: Stromelysin-1 (Homo sapiens)
# Sequence (P08254 whole entry): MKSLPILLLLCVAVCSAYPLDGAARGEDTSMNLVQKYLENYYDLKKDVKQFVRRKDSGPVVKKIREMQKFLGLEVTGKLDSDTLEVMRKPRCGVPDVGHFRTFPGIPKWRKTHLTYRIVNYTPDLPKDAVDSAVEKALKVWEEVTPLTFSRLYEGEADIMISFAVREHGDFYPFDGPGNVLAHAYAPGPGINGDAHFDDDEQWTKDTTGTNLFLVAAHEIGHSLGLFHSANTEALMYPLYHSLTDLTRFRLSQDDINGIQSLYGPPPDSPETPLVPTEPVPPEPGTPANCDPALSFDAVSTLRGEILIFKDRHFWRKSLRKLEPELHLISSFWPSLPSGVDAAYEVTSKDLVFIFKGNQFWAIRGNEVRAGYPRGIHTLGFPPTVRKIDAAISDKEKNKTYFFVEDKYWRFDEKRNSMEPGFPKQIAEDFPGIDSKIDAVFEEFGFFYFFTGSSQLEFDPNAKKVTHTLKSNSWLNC
# Protocol text: Inhibition of human recombinant MMP3 after 1 hr

Smiles representation	Unit descriptor	IC50
O=P(O)(O)C(Cl)(Cl)P(=O)(O)O	µM	300
